System: UACC-62 melanoma
protocol.description: NCI-60 one-dose screen, 48 h (100 = growth as untreated, 0 = no growth, -100 = all killed)
condition.parameters: 10 µM unless noted
Compounds without any hit were thinned out: in the full panel of roughly 83,000, 20% have a hit.
Please note: criterion met applies when growth is 20% or greater, and criterion not met applies otherwise.

[
  {
    "structure": "O=C1C=Cc2ncccc2C1=O",
    "test.target": "UACC-62 melanoma",
    "category": "criterion met"
  },
  {
    "structure": "C[C@@H](Oc1ccc(C(=O)NS(=O)(=O)C(C)(C)C)cc1C(F)(F)F)c1ccc(Oc2ccccc2)cn1",
    "test.target": "UACC-62 melanoma",
    "category": "criterion not met"
  },
  {
    "structure": "c1cc(N2CCCC2)c2nc(-c3[nH]ncc3Nc3ncnc4[nH]ccc34)[nH]c2c1",
    "test.target": "UACC-62 melanoma",
    "category": "criterion not met"
  },
  {
    "structure": "Cc1nn(-c2ccc(Br)cc2)c2nc3[nH]c(=O)[nH]c(=O)c3nc12",
    "test.target": "UACC-62 melanoma",
    "category": "criterion met"
  },
  {
    "structure": "Cc1cc(Nc2ccc(F)cc2)nc(N2CCN(c3ccnc4cc(Cl)ccc34)CC2)n1",
    "test.target": "UACC-62 melanoma",
    "category": "criterion met"
  },
  {
    "structure": "COc1ccc(C(=O)/C=C/c2cc(-c3cc(OC)c(OC)c(OC)c3)n[nH]2)cc1OC",
    "test.target": "UACC-62 melanoma",
    "category": "criterion met"
  },
  {
    "structure": "COC(=O)[C@]12CC[C@@H](C(=O)/C=C/c3cccnc3)[C@@H]1[C@H]1CC[C@@H]3[C@@]4(C)C/C(=C/c5cccnc5)C(=O)C(C)(C)[C@@H]4CC[C@@]3(C)[C@]1(C)CC2",
    "test.target": "UACC-62 melanoma",
    "category": "criterion not met"
  }
]

###

System: SF-295 CNS
protocol.description: NCI-60 one-dose screen, 48 h
condition.parameters: 10 µM unless noted
This is part of a sample that, as a whole, favours compounds with a hit. Of some 83,000 tested, about 20% had one in any assay. Active and inactive are the calls of the source. Rule for the calls: active = growth percent below 10; inactive = the rest.
Possible outcomes: true (1) (active), false (0) (inactive)

[
  {
    "compound": "COC(c1ccccc1)(c1ccccc1)c1ccccc1",
    "category": "false (0)"
  },
  {
    "compound": "Nc1c(Cl)cc(N=Nc2ccccc2)cc1Cl",
    "category": "false (0)"
  },
  {
    "compound": "Cc1ccc(S(=O)(=O)Nc2ccc(-c3cc(-c4cccc(F)c4)c(C#N)c(=O)[nH]3)cc2)cc1",
    "category": "false (0)"
  },
  {
    "compound": "COc1ccc(-c2c(-c3nc4ccc(N5CCOCC5)cc4[nH]3)[nH]c(C)c2C(C)=O)cc1",
    "category": "false (0)"
  },
  {
    "compound": "N#CC1=C(N)Oc2ccc3ccccc3c2C1c1ccccc1 (configuration not stated)",
    "category": "true (1)"
  },
  {
    "compound": "NC(=O)NCC1CCCCC1",
    "category": "false (0)"
  },
  {
    "compound": "C=C(C)[C@@H]1CC[C@]2(C)[C@H](CC=C3[C@@H]4CC(C)(C)CC[C@]4(C(=O)OC)CC[C@]32C)[C@@]1(C)CC/C(N)=N/O",
    "category": "false (0)"
  }
]

###

System: MOLT-4 leukemia
protocol.description: NCI-60 one-dose screen, 48 h (100 = growth as untreated, 0 = no growth, -100 = all killed)
condition.parameters: 10 µM unless noted
About 83,000 compounds went through this panel and 20% of them were active in at least one assay; those are over-represented in the sample as a whole.
Entries and their measured growth follow.

[
  {
    "compound": "Cc1csc(Nc2nc(-c3cccc(Br)c3)nc(C(Cl)(Cl)Cl)n2)n1",
    "growth, %": 80.7
  },
  {
    "compound": "N#Cc1cnc2cc(OC[C@@H](O)CO)c(NC(=O)CC3CSSC3)cc2c1Nc1ccc(OCc2cccc(F)c2)c(Cl)c1",
    "growth, %": -50.4
  },
  {
    "compound": "COC(=O)c1cc(=O)nc(N/N=C/c2ccc(C)cc2)s1",
    "growth, %": 92.6
  },
  {
    "compound": "COc1ccc(CCN2C(=O)C(C)(C)SC2=S)cc1OC",
    "growth, %": 101
  },
  {
    "compound": "COc1ccc(NC(=O)c2ccoc2COc2ccccc2)cc1",
    "growth, %": 95.6
  },
  {
    "compound": "CC(=O)c1c(C)[nH]c(-c2nc3ccc(N4CCN(C)CC4)cc3[nH]2)c1-c1ccc(OCC2CCOCC2)cc1",
    "growth, %": 47.5
  },
  {
    "compound": "Cc1ccc(-c2nc([P+](c3ccccc3)(c3ccccc3)c3ccccc3)c(N3CCOCC3)o2)cc1",
    "growth, %": -8.12
  },
  {
    "compound": "O=C(NO)c1ccc(Cn2c(=O)n(-c3ccccc3)c(=O)c3ccccc32)cc1",
    "growth, %": -2.07
  },
  {
    "compound": "CC1=NN(c2ccc(S(=O)(=O)O)cc2Cl)C(=O)C1",
    "growth, %": 123
  },
  {
    "compound": "Cc1c(C)c2c(c(C)c1NC(=O)CCCCCCC(=O)O)CCC(C)(CCCC(C)CCCC(C)CCCC(C)C)O2 (stereo unspecified)",
    "growth, %": 76.7
  },
  {
    "compound": "O=C1Nc2ccccc2/C1=C/c1cn(CCCn2c3ccccc3c(=O)c3ccccc32)c2ccccc12",
    "growth, %": 77.7
  },
  {
    "compound": "O=C(O)c1cccc2c1-c1ccc(Cl)cc1C2",
    "growth, %": 89.9
  },
  {
    "compound": "Cc1cc(N2CCN(C)CC2)nc(N(CCNc2ccnc3cc(Cl)ccc23)Cc2ccco2)n1",
    "growth, %": 28.8
  },
  {
    "compound": "COc1cc2nc(Cl)nc(Nc3cccc(C(=O)/C=C/c4ccc(Br)cc4)c3)c2cc1OC",
    "growth, %": 37.1
  },
  {
    "compound": "Nc1c(C(=O)Nc2c(Cl)cccc2Cl)sc2nc3c(cc12)C(=O)CCC3",
    "growth, %": 65.3
  },
  {
    "compound": "CCOC(=O)C1OC1(c1ccccc1)c1ccccc1 (stereo unspecified)",
    "growth, %": 105
  },
  {
    "compound": "COc1ccc(-c2n/c(=C\\c3c(O)[nH]c4ccc(OC)cc34)cc3c2=Nc2ccccc2-3)cc1",
    "growth, %": -35.4
  },
  {
    "compound": "O=C1NC(c2ccc(Cl)c(Cl)c2)=C/C1=C\\c1ccccc1",
    "growth, %": 53.9
  },
  {
    "compound": "c1ccc(C2Cc3ccccc3C2=NC2CCCCC2)cc1 (stereo unspecified)",
    "growth, %": 102
  },
  {
    "compound": "OCCNc1nc(Nc2ccc(Cl)c(Cl)c2)nc2ccccc12",
    "growth, %": 6.93
  },
  {
    "compound": "Brc1ccc2c(c1)c(-c1nc(-c3c[nH]c4ncccc34)cs1)cn2CCCN1CCCCC1",
    "growth, %": -44.6
  },
  {
    "compound": "N#Cc1c(-c2ccc(O)cc2)c2c(N)nn(-c3ccccc3)c2[nH]c1=O",
    "growth, %": 98.1
  },
  {
    "compound": "CCN1CCN(C(=O)[C@@]2(C)CC[C@]3(C)CC[C@]4(C)C(=CC(=O)[C@@H]5[C@@]6(C)CC[C@H](OC7C[C@@H](O)[C@@H](O)C(C)O7)C(C)(C)[C@@H]6CC[C@]54C)[C@@H]3C2)CC1 (stereo partly specified)",
    "growth, %": 0.754
  },
  {
    "compound": "COC(=O)[C@]12CC[C@@H](C)[C@H](C)[C@@H]1C1=CC[C@@H]3[C@@]4(C)C(c5ncon5)=C[C@@](C)(CO)C4=CC[C@@]3(C)[C@]1(C)CC2",
    "growth, %": -42.8
  },
  {
    "compound": "CCC(c1ccc(OC)cc1)C(CC)c1ccc(O)c(CN2CCCCC2)c1 (stereo unspecified)",
    "growth, %": 62.7
  },
  {
    "compound": "CN(C)CCCC1(c2ccc(F)cc2)OCc2cc(-c3ccc(C(F)(F)F)nc3)ccc21 (stereo unspecified)",
    "growth, %": 53.6
  }
]
